molecular target: Mitogen-activated protein kinase 7 (Homo sapiens); experiment: Gal4-ERK5 driven luciferase induction – cell-based, HTS, primary screen (AID 1508626); details: HeLa Gal4-ERK5 transactivation, 18 h, at 5 µM, stronger effect = higher value;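 further: luciferase driven by Gal4-ERK5 fusion binding five Gal4 sites before minimal TATA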
Calls of active or inactive are those of the source.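 How the source made its calls: active means luciferase signal above three times the same-plate solvent-only control wells; inactive means the rest.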
Readout: luciferase signal

For orientation, consider the following solved cases.
NC(CO)C(=O)NNCc1ccc(O)c(O)c1O (stereo unspecified): 132 AU (inactive)
CCCc1ncc(C[n+]2ccccc2C)c(N)n1: 52 AU (inactive)
CO[C@@H]1[C@@H](OC(N)=O)[C@@H](O)[C@H](Oc2ccc3c(O)c(NC(=O)c4ccc(O)c(CC=C(C)C)c4)c(=O)oc3c2C)OC1(C)C: 44 AU (inactive)
CN(Cc1cc(Br)cc(Br)c1N)C1CCCCC1: 56 AU (inactive)

QUERY: I'd like to know its luciferase signal. The compound in question is CC(C(=O)O)c1ccc2c(c1)[nH]c1ccc(Cl)cc12 (stereo unspecified)
RESULT: 16 AU (inactive)

QUERY: I'd like to know its luciferase signal. The compound in question is C=CCSCC1Nc2cc(Cl)c(S(N)(=O)=O)cc2S(=O)(=O)N1 (stereo unspecified)
RESULT: 40 AU (inactive)

QUERY: I'd like to know its luciferase signal. The compound in question is CC(=O)Oc1ccccc1C(=O)O
RESULT: 92 AU (inactive)

QUERY: I'd like to know its luciferase signal. The compound in question is CC(C)NC[C@@H](O)COc1cccc2ccccc12
RESULT: 52 AU (inactive)

QUERY: I'd like to know its luciferase signal. The compound in question is C[C@@H]1C[C@H]2[C@@H]3CCC4=CC(=O)C=C[C@]4(C)[C@@]3(F)[C@@H](O)C[C@]2(C)[C@@]1(O)C(=O)COP(=O)(O)O
RESULT: 32 AU (inactive)

QUERY: I'd like to know its luciferase signal. The compound in question is NC[C@H]1O[C@H](O[C@H]2[C@H](O)[C@@H](O[C@H]3O[C@H](CO)[C@@H](O)[C@H](N)[C@H]3O)[C@H](N)C[C@@H]2N)[C@H](N)[C@@H](O)[C@@H]1O
RESULT: 76 AU (inactive)

QUERY: I'd like to know its luciferase signal. The compound in question is Cn1c(=O)c2c(ncn2CCO)n(C)c1=O
RESULT: 196 AU (active)

----------
Each entry below carries its recorded inhibition.
assay: growth inhibition, single agents and combos, LFS_MB_2R, cell-based, cisplatin combos, synergistic combos for chromothripsis tumors (AID 1671457); conditions: LFS_MB_2R medulloblastoma cells, measured here: combination with cisplatin, at 0.5 µM, stronger effect = higher value;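 further: cells exposed to compound for four days before readout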
Write it as a number; the unit % goes unstated.

For orientation, consider the following solved cases.
O=c1oc2c(O)c(O)cc3c(=O)oc4c(O)c(O)cc1c4c23: -27.7
CCN1CCN(c2cc3c(cc2F)c(=O)c(C(=O)O)cn3C2CC2)CC1: -28.5
O=C(O)P(=O)(O)O: -14.2
NC(=O)NO: 8.29
Cc1nc2ccc(CN(C)c3ccc(C(=O)N[C@@H](CCC(=O)O)C(=O)O)s3)cc2c(=O)[nH]1: -12.9
Nc1nc(=S)c2[nH]cnc2[nH]1: -18.2
O=C(O)CCCCCCCC(=O)O: -13.8
Cc1ccnc2c1NC(=O)c1cccnc1N2C1CC1: 3.86

QUERY: I'd like to know its inhibition. The compound in question is Nc1nc2c(ncn2COC(CO)CO)c(=O)[nH]1
RESULT: 8.4

QUERY: I'd like to know its inhibition. The compound in question is CN(C)c1ccc(C(=C2C=CC(=[N+](C)C)C=C2)c2ccc(N(C)C)cc2)cc1
RESULT: 59.1

QUERY: I'd like to know its inhibition. The compound in question is CC(N)C12CC3CC(CC(C3)C1)C2 (stereo unspecified)
RESULT: -16.8
